Provenance of the data: the Human Domainome abundance scans (Beltran et al. 2025)

B1: E3 ubiquitin-protein ligase NEDD4, residues 836 to 881; numbered along this chain, P46934 (parent)
chain: EIEQGFLPKGWEVRHAPNGRPFFIDHNTKTTTWEDPRLKIPAHLRG

Variants of: B1
assay comment: abundance fitness (aPCA) (normalised: wild type 0, dead -1); higher = more abundant; growth selection in yeast, the domain comes from the species named
experimental parameters: Homo sapiens
Use -0.2 as the dividing line for abundance fitness, with the line itself on the 1 (yes) side and lower values as 0 (no).

1. T28K	0 (no)
2. D35V	0 (no)
3. P36C	0 (no)
4. H43Q	1 (yes)
5. P36D	0 (no)
6. P21E	1 (yes)
7. A42G	1 (yes)
8. F22L	1 (yes)
9. R37Y	0 (no)
10. L44A	1 (yes)
11. I40P	0 (no)
12. D35K	0 (no)
13. P21S	0 (no)
14. H26D	0 (no)
15. G19E	0 (no)
16. L38G	1 (yes)
17. N27Y	0 (no)
18. L38R	1 (yes)
19. K39E	1 (yes)
20. R45A	1 (yes)
21. T28A	0 (no)
22. P41A	1 (yes)
23. P41N	1 (yes)
24. T32S	1 (yes)
25. K29T	0 (no)
26. I24T	0 (no)
